Recorded Ka (apparent activation constant), one value per entry.
# measured_on: WT SaPC (Staphylococcus aureus, UniProt A0A0H3JRU9)
# Sequence (A0A0H3JRU9 whole entry): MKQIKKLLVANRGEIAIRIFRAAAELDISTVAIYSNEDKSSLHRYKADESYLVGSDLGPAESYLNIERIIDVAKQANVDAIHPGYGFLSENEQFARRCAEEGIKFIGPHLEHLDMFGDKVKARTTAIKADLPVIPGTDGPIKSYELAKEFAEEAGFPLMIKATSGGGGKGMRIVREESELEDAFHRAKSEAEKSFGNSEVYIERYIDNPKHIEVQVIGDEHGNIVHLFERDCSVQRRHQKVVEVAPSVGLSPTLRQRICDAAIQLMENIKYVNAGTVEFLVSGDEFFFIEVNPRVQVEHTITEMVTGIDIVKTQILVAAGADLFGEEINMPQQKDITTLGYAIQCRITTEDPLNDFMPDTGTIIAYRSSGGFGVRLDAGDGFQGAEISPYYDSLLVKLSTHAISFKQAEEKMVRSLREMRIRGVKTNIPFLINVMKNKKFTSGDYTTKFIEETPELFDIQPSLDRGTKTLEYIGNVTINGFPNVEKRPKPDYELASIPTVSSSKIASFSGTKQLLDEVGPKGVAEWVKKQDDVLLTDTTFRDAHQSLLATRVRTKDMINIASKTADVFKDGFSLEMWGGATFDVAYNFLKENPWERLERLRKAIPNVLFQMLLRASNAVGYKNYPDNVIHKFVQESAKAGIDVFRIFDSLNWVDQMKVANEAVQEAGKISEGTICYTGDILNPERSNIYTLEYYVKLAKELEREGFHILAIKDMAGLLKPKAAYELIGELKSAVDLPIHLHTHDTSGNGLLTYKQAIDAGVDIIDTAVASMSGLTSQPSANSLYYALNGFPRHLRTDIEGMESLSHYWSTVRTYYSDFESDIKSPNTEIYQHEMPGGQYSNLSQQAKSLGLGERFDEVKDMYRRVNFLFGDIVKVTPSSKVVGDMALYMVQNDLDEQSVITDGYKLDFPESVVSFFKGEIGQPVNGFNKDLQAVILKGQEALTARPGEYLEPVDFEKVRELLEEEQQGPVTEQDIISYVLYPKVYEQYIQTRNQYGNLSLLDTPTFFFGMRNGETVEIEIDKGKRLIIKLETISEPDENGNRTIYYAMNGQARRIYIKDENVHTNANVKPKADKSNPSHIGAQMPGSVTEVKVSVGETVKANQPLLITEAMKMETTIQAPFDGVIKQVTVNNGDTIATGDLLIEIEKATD
# procedure_details: Pyruvate carboxylation assay
# Assay type: biochemical
# test_context: Acyl-CoA alone; Table 1; fit to Equation 1 (3′5′ diphosphoadenosine: Equation 2)
measured_property: Ka (apparent activation constant) (µM)

                            smiles_notation                  measured_property  unit_string  result_number
0  CC(=O)CCCNC(=O)CCNC(=O)[C@H](O)C(C)(C)COP(=O)(O)OP(=O)(O)OC[C@H]1O[C@@H](n2cnc3c(N)ncnc32)[C@H](O)[C@@H]1OP(=O)(O)O  Ka (apparent activation constant)           µM             53
1  CC(=O)OCCNC(=O)CCNC(=O)[C@H](O)C(C)(C)COP(=O)(O)OP(=O)(O)OC[C@H]1O[C@@H](n2cnc3c(N)ncnc32)[C@H](O)[C@@H]1OP(=O)(O)O  Ka (apparent activation constant)           µM             73
2  CC(=O)NCCNC(=O)CCNC(=O)[C@H](O)C(C)(C)COP(=O)(O)OP(=O)(O)OC[C@H]1O[C@@H](n2cnc3c(N)ncnc32)[C@H](O)[C@@H]1OP(=O)(O)O  Ka (apparent activation constant)           µM           2500
3  CC(=O)SCCNC(=O)CCNC(=O)[C@H](O)C(C)(C)COP(=O)(O)OP(=O)(O)OC[C@H]1O[C@@H](n2cnc3c(N)ncnc32)[C@H](O)[C@@H]1OP(=O)(O)O  Ka (apparent activation constant)           µM            1.5
4  Nc1ncnc2c1ncn2[C@@H]1O[C@H](COP(=O)(O)O)[C@@H](OP(=O)(O)O)[C@H]1O  Ka (apparent activation constant)           µM           5900
